TARGET OR TEST SYSTEM: T1, PD-L1 fuse-expressed with an Fc derived from human IgG1 (human, UniProt Q9NZQ7 19-239)
T1 construct: Bought reagent; also called PD-L1-Fc; hPD-L1-Fc; not shown: Fc of human IgG1
T1 sequence (Q9NZQ7 19-239 limits assumed): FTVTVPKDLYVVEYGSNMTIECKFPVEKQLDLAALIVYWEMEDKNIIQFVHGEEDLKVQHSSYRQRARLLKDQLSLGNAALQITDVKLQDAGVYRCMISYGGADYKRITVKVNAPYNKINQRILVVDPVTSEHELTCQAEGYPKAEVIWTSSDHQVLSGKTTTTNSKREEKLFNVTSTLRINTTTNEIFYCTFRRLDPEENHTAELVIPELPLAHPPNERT
TEST SUMMARY: SPR Biacore T200
RECORDED METRIC: log10 Kd (log10 of the value in nM)
Hi team, quick reminder: these entries are log10 of Kd (nM).

// known answers, use as guide
Seq No. 7-RFc (PD-1 variant PD1_56#-108 fused to rabbit IgG Fc) (Fc fusion, Signal peptide 1-20 left out; also called variant 6; not shown: rabbit IgG Fc (RFc) of vector pcDNA3.4-RFc) PGWFLDSPDRPWNPPTFSPALLVVTEGDNATFTCSFSNTSESFVLNWYRMSPSNQTDKLAAFPEDRINRSQDCRFRVTQLPNGRDFHMSVVRARRNDSGTYLCGAISLSTPVWIKESLRAELRVTERRAEVPTAH : -0.42
Seq No. 6-RFc (PD-1 variant PD1_56#-16 fused to rabbit IgG Fc) (Fc fusion, Signal peptide 1-20 left out; several higher bands in non-reducing SDS-PAGE; also called variant 5; PD1 variant 5 (56#-16); not shown: rabbit IgG Fc (RFc) of vector pcDNA3.4-RFc) PGWFLDSPDRPWNPPTFSPALLVVTEGDNATFTCSFSNTSESFVLNWYRMSPSNQTDKLAAFPEDFFTVSQDCRFRVTQLPNGRDFHMSVVRARRNDSGTYLCGAISLSTPVWIKESLRAELRVTERRAEVPTAH : -0.18
Seq No. 3-RFc (PD-1 variant PD1_56#-2 fused to rabbit IgG Fc) (Fc fusion, Signal peptide 1-20 left out; several higher bands in non-reducing SDS-PAGE; also called variant 2; Mut2/56#-2; not shown: rabbit IgG Fc (RFc) of vector pcDNA3.4-RFc) PGWFLDSPDRPWNPPTFSPALLVVTEGDNATFTCSFSNTSESFVLNWYRMSPSNQTDKLAAFPFLFNLPGQDCRFRVTQLPNGRDFHMSVVRARRNDSGTYLCGAISLSTPVWIKESLRAELRVTERRAEVPTAH : 0.61
Seq No. 5-RFc (PD-1 variant PD1_56#-15 fused to rabbit IgG Fc) (Fc fusion, Signal peptide 1-20 left out; also called variant 4; Mut4/56#-15; not shown: rabbit IgG Fc (RFc) of vector pcDNA3.4-RFc) PGWFLDSPDRPWNPPTFSPALLVVTEGDNATFTCSFSNTSESFVLNWYRMSPSNQTDKLAAFPEDFRNCTQDCRFRVTQLPNGRDFHMSVVRARRNDSGTYLCGAISLSTPVWIKESLRAELRVTERRAEVPTAH : 0.35

Proceeding to the next binder to report its log10 Kd.
Recorded log10 Kd (binder Seq No. 2-RFc (PD-1 variant PD1_56# fused to rabbit IgG Fc) (Fc fusion, Signal peptide 1-20 left out; also called variant 1; Mut1/56#; not shown: rabbit IgG Fc (RFc) of vector pcDNA3.4-RFc) PGWFLDSPDRPWNPPTFSPALLVVTEGDNATFTCSFSNTSESFVLNWYRMSPSNQTDKLAAFPEDRSQPGQDCRFRVTQLPNGRDFHMSVVRARRNDSGTYLCGAISLSTPVWIKESLRAELRVTERRAEVPTAH ): -0.34
